Origin of measurements: PubChem BioAssay AID1963827

system: 994946-033-R-J1-PDC complex spheroid viability; experiment: Anticancer human tumor 994946-033-R-J1-PDC patient-derived melanoma cell line growth inhibition [POLQ]; settings: second compound 10 µM; first compound 10 µM; stronger effect = lower value
recorded.metric: viability, T/C (%)
Reply with just the number (in %).

Prompt: Supply measured viability, T/C of O=c1[nH]cc(F)c(=O)[nH]1 + COC1C(OC(N)=O)C(O)C(Oc2ccc3c(O)c(NC(=O)c4ccc(O)c(CC=C(C)C)c4)c(=O)oc3c2C)OC1(C)C in your reply.
Response: 61.5

Prompt: Supply measured viability, T/C of CCc1cc2c(N3CCc4c(cc(Cn5ccnc5)cc4-c4cn(C)nc4C(F)(F)F)C3=O)ccnc2c(OC)n1 + COC1C(OC(N)=O)C(O)C(Oc2ccc3c(O)c(NC(=O)c4ccc(O)c(CC=C(C)C)c4)c(=O)oc3c2C)OC1(C)C in your reply.
Response: 58.9

Prompt: Supply measured viability, T/C of C#Cc1c(F)ccc2cc(O)cc(-c3ncc4c(N5CC6CCC(C5)N6)nc(OCC56CCCN5CC(F)C6)nc4c3F)c12 (stereo not given) + COC1C(OC(N)=O)C(O)C(Oc2ccc3c(O)c(NC(=O)c4ccc(O)c(CC=C(C)C)c4)c(=O)oc3c2C)OC1(C)C in your reply.
Response: 6.26

Prompt: Supply measured viability, T/C of Nc1ccn(C2OC(CO)C(O)C2(F)F)c(=O)n1 (stereo not given) + Nc1ccc(C#CCN(C(=O)Cc2ncc(C(F)(F)F)cc2C(F)(F)F)c2ccc(F)cc2)nn1 in your reply.
Response: 6.31

Prompt: Supply measured viability, T/C of C=CC(=O)N1CCN(c2nc(=O)n(-c3c(C)ccnc3C(C)C)c3nc(-c4c(O)cccc4F)c(F)cc23)C(C)C1 (stereo not given) + Nc1ccc(C#CCN(C(=O)Cc2ncc(C(F)(F)F)cc2C(F)(F)F)c2ccc(F)cc2)nn1 in your reply.
Response: 116

----------
system: 994946-033-R-J1-PDC complex spheroid viability; test: Anticancer human tumor 994946-033-R-J1-PDC cell line growth inhibition [POLQ]; conditions: second compound 0.0316 µM; first compound 0.316 µM; stronger effect = lower value;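 further: spheroids exposed to drugs for 7 days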;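 on viability, T/C: 100% = DMSO vehicle treated spheroids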
recorded.metric: viability, T/C (%)
Reply with just the number (in %).

Prompt: Give measured viability, T/C for CCCS(=O)(=O)Nc1ccc(F)c(C(=O)c2c[nH]c3ncc(-c4ccc(Cl)cc4)cc23)c1F + COC1C(OC(N)=O)C(O)C(Oc2ccc3c(O)c(NC(=O)c4ccc(O)c(CC=C(C)C)c4)c(=O)oc3c2C)OC1(C)C (994946-033-R-J1-PDC complex spheroid viability).
Response: 99.6

Prompt: Give measured viability, T/C for C=CC(=O)N1CCN(c2nc(=O)n(-c3c(C)ccnc3C(C)C)c3nc(-c4c(O)cccc4F)c(F)cc23)C(C)C1 (stereo not given) + Cc1cccc(N(C)C(=O)C2C(O)CCN2c2nc(C)cc(C(F)(F)F)c2C#N)c1 (994946-033-R-J1-PDC complex spheroid viability).
Response: 112

Prompt: Give measured viability, T/C for COc1cc2cc(C(=O)CCC(=O)O)sc2cc1OC + Cc1cccc(N(C)C(=O)C2C(O)CCN2c2nc(C)cc(C(F)(F)F)c2C#N)c1 (994946-033-R-J1-PDC complex spheroid viability).
Response: 130

Prompt: Give measured viability, T/C for COc1cc2cc(C(=O)CCC(=O)O)sc2cc1OC + COC1C(OC(N)=O)C(O)C(Oc2ccc3c(O)c(NC(=O)c4ccc(O)c(CC=C(C)C)c4)c(=O)oc3c2C)OC1(C)C (994946-033-R-J1-PDC complex spheroid viability).
Response: 98.6

Prompt: Give measured viability, T/C for CC1COCCN1c1cc(C2(O)CC3CCC(C2)O3)c2cnn(-c3ccn[nH]3)c2n1 (stereo not given) + Nc1ccc(C#CCN(C(=O)Cc2ncc(C(F)(F)F)cc2C(F)(F)F)c2ccc(F)cc2)nn1 (994946-033-R-J1-PDC complex spheroid viability).
Response: 23.4

----------
test system: 994946-033-R-J1-PDC complex spheroid viability; test: Anticancer human tumor 994946-033-R-J1-PDC cell line growth inhibition [POLQ]; details: curve of first compound; second compound 0.316 µM;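 further: spheroids exposed to drugs for 7 days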
recorded.metric: IC50 (nM)
Reply with just the number (in nM).

Prompt: Supply measured IC50 of COc1ccc([C@@H](O)c2cc(-c3ncnc4cc(N5CCOCC5)ccc34)c(F)cc2Cl)nn1 + Nc1ccc(C#CCN(C(=O)Cc2ncc(C(F)(F)F)cc2C(F)(F)F)c2ccc(F)cc2)nn1 in your reply.
Response: 3130

Prompt: Supply measured IC50 of CC1COCCN1c1cc(C2(S(C)(=N)=O)CC2)nc(-c2ccnc3[nH]ccc23)n1 (stereo not given) + COC1C(OC(N)=O)C(O)C(Oc2ccc3c(O)c(NC(=O)c4ccc(O)c(CC=C(C)C)c4)c(=O)oc3c2C)OC1(C)C in your reply.
Response: 4030

Prompt: Supply measured IC50 of CC1COCCN1c1cc(C2(O)CC3CCC(C2)O3)c2cnn(-c3ccn[nH]3)c2n1 (stereo not given) + COC1C(OC(N)=O)C(O)C(Oc2ccc3c(O)c(NC(=O)c4ccc(O)c(CC=C(C)C)c4)c(=O)oc3c2C)OC1(C)C in your reply.
Response: 34

Prompt: Supply measured IC50 of CC[C@@]1(O)C(=O)OCc2c1cc1n(c2=O)Cc2cc3c(CN(C)C)c(O)ccc3nc2-1 + Nc1ccc(C#CCN(C(=O)Cc2ncc(C(F)(F)F)cc2C(F)(F)F)c2ccc(F)cc2)nn1 in your reply.
Response: 21.4

Prompt: Supply measured IC50 of O=c1[nH]cc(F)c(=O)[nH]1 + Cc1cccc(N(C)C(=O)C2C(O)CCN2c2nc(C)cc(C(F)(F)F)c2C#N)c1 in your reply.
Response: 2290

Prompt: Supply measured IC50 of COc1cccc(OCCCN)c1-c1cc(Nc2cnc(C#N)cn2)n[nH]1 + Nc1ccc(C#CCN(C(=O)Cc2ncc(C(F)(F)F)cc2C(F)(F)F)c2ccc(F)cc2)nn1 in your reply.
Response: 17.1

Prompt: Supply measured IC50 of O=C(c1cc(Cc2n[nH]c(=O)c3ccccc23)ccc1F)N1CCN(C(=O)C2CC2)CC1 + Nc1ccc(C#CCN(C(=O)Cc2ncc(C(F)(F)F)cc2C(F)(F)F)c2ccc(F)cc2)nn1 in your reply.
Response: 4090

Prompt: Supply measured IC50 of CC1COCCN1c1cc(C2(S(C)(=N)=O)CC2)nc(-c2ccnc3[nH]ccc23)n1 (stereo not given) + Cc1cccc(N(C)C(=O)C2C(O)CCN2c2nc(C)cc(C(F)(F)F)c2C#N)c1 in your reply.
Response: 4200

Prompt: Supply measured IC50 of O=C(Nc1ccc(O)c(NS(=O)(=O)c2ccc(F)cc2)c1)c1ccc(-c2ccccc2)cc1 + COC1C(OC(N)=O)C(O)C(Oc2ccc3c(O)c(NC(=O)c4ccc(O)c(CC=C(C)C)c4)c(=O)oc3c2C)OC1(C)C in your reply.
Response: 6090

Prompt: Supply measured IC50 of CC[C@@]1(O)C(=O)OCc2c1cc1n(c2=O)Cc2cc3c(CN(C)C)c(O)ccc3nc2-1 + COC1C(OC(N)=O)C(O)C(Oc2ccc3c(O)c(NC(=O)c4ccc(O)c(CC=C(C)C)c4)c(=O)oc3c2C)OC1(C)C in your reply.
Response: 21.4

----------
system: 994946-033-R-J1-PDC complex spheroid viability; assay: Anticancer human tumor 994946-033-R-J1-PDC cell line growth inhibition [POLQ]; details: curve of first compound; second compound 0.1 µM;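 further: spheroids exposed to drugs for 7 days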
Provide the reported pIC50 of each item.
The meaning of pIC50 here: minus log10 of the concentration in molar units.

Prompt: Supply measured pIC50 of COc1cccc(OCCCN)c1-c1cc(Nc2cnc(C#N)cn2)n[nH]1 + Cc1cccc(N(C)C(=O)C2C(O)CCN2c2nc(C)cc(C(F)(F)F)c2C#N)c1 in your reply.
Response: 7.83

Prompt: Supply measured pIC50 of COc1cc(C2c3cc4c(cc3C(OC3OC5COC(C)OC5C(O)C3O)C3COC(=O)C23)OCO4)cc(OC)c1O (stereo unspecified) + Nc1ccc(C#CCN(C(=O)Cc2ncc(C(F)(F)F)cc2C(F)(F)F)c2ccc(F)cc2)nn1 in your reply.
Response: 6.46

Prompt: Supply measured pIC50 of CC1COCCN1c1cc(C2(O)CC3CCC(C2)O3)c2cnn(-c3ccn[nH]3)c2n1 (stereo unspecified) + COC1C(OC(N)=O)C(O)C(Oc2ccc3c(O)c(NC(=O)c4ccc(O)c(CC=C(C)C)c4)c(=O)oc3c2C)OC1(C)C in your reply.
Response: 7.30

Prompt: Supply measured pIC50 of CC1COCCN1c1cc(C2(S(C)(=N)=O)CC2)nc(-c2ccnc3[nH]ccc23)n1 (stereo unspecified) + Cc1cccc(N(C)C(=O)C2C(O)CCN2c2nc(C)cc(C(F)(F)F)c2C#N)c1 in your reply.
Response: 5.37

Prompt: Supply measured pIC50 of CC1COCCN1c1cc(-c2ccnn2C)c2ccnc(-c3ccn[nH]3)c2n1 (stereo unspecified) + Cc1cccc(N(C)C(=O)C2C(O)CCN2c2nc(C)cc(C(F)(F)F)c2C#N)c1 in your reply.
Response: 7.27

Prompt: Supply measured pIC50 of CC1COCCN1c1cc(C2(S(C)(=N)=O)CC2)nc(-c2ccnc3[nH]ccc23)n1 (stereo unspecified) + Nc1ccc(C#CCN(C(=O)Cc2ncc(C(F)(F)F)cc2C(F)(F)F)c2ccc(F)cc2)nn1 in your reply.
Response: 5.24

Prompt: Supply measured pIC50 of COc1ccc([C@@H](O)c2cc(-c3ncnc4cc(N5CCOCC5)ccc34)c(F)cc2Cl)nn1 + Nc1ccc(C#CCN(C(=O)Cc2ncc(C(F)(F)F)cc2C(F)(F)F)c2ccc(F)cc2)nn1 in your reply.
Response: 5.17

Prompt: Supply measured pIC50 of COc1ccc([C@@H](O)c2cc(-c3ncnc4cc(N5CCOCC5)ccc34)c(F)cc2Cl)nn1 + Cc1cccc(N(C)C(=O)C2C(O)CCN2c2nc(C)cc(C(F)(F)F)c2C#N)c1 in your reply.
Response: 5.18

Prompt: Supply measured pIC50 of CC[C@@]1(O)C(=O)OCc2c1cc1n(c2=O)Cc2cc3c(CN(C)C)c(O)ccc3nc2-1 + COC1C(OC(N)=O)C(O)C(Oc2ccc3c(O)c(NC(=O)c4ccc(O)c(CC=C(C)C)c4)c(=O)oc3c2C)OC1(C)C in your reply.
Response: 7.70

Prompt: Supply measured pIC50 of C=CCn1c(=O)c2cnc(Nc3ccc(N4CCN(C)CC4)cc3)nc2n1-c1cccc(C(C)(C)O)n1 + COC1C(OC(N)=O)C(O)C(Oc2ccc3c(O)c(NC(=O)c4ccc(O)c(CC=C(C)C)c4)c(=O)oc3c2C)OC1(C)C in your reply.
Response: 6.06

Prompt: Supply measured pIC50 of CC[C@@]1(O)C(=O)OCc2c1cc1n(c2=O)Cc2cc3c(CN(C)C)c(O)ccc3nc2-1 + Nc1ccc(C#CCN(C(=O)Cc2ncc(C(F)(F)F)cc2C(F)(F)F)c2ccc(F)cc2)nn1 in your reply.
Response: 7.53

Prompt: Supply measured pIC50 of CCCS(=O)(=O)Nc1ccc(F)c(C(=O)c2c[nH]c3ncc(-c4ccc(Cl)cc4)cc23)c1F + Cc1cccc(N(C)C(=O)C2C(O)CCN2c2nc(C)cc(C(F)(F)F)c2C#N)c1 in your reply.
Response: 5.21
